System: panel of breast cancer cell lines
Experiment: Compound A with targeted agents and chemotherapies, 72-hour in vitro proliferation assays
Format: cell-based
Conditions: HCC1806; compound A × partner, 72-hour proliferation
Structures can show the parent of a compound that is named as a salt.
Give HSA volume for every item shown.
Could you respond with only the numeric value?

Recall the reported HSA volume of CC(=O)O[C@@]12CO[C@@H]1C[C@H](O)[C@@]1(C)C(=O)[C@H](O)C3=C(C)[C@@H](OC(=O)[C@H](O)[C@@H](NC(=O)OC(C)(C)C)c4ccccc4)C[C@@](O)([C@@H](OC(=O)c4ccccc4)[C@H]21)C3(C)C [Docetaxel] when tested on panel of breast cancer cell lines.
12.45

Recall the reported HSA volume of CCOc1cc2ncc(C#N)c(Nc3ccc(OCc4ccccn4)c(Cl)c3)c2cc1NC(=O)/C=C/CN(C)C [Neratinib] when tested on panel of breast cancer cell lines.
19.39

Recall the reported HSA volume of CC1(C)CCC(CN2CCN(c3ccc(C(=O)NS(=O)(=O)c4ccc(NCC5CCOCC5)c([N+](=O)[O-])c4)c(Oc4cnc5[nH]ccc5c4)c3)CC2)=C(c2ccc(Cl)cc2)C1 [ABT-199] when tested on panel of breast cancer cell lines.
4.70

Recall the reported HSA volume of Cn1ncnc1[C@H]1c2n[nH]c(=O)c3cc(F)cc(c23)N[C@@H]1c1ccc(F)cc1 [BMN 673] when tested on panel of breast cancer cell lines.
21.19

Recall the reported HSA volume of Nc1ccn([C@@H]2O[C@H](CO)[C@@H](O)C2(F)F)c(=O)n1 [Gemcitabine Hydrochloride] when tested on panel of breast cancer cell lines.
18.06

Recall the reported HSA volume of CC(C)NC[C@@H](C(=O)N1CCN(c2ncnc3c2[C@H](C)C[C@H]3O)CC1)c1ccc(Cl)cc1 [GDC-0068] when tested on panel of breast cancer cell lines.
−2.22
